Tested on: Mus musculus
Assay remarks: Anti-amnesic activity in mouse model of scopolamine-induced cognitive deficit assessed as latency time to enter dark compartment in retension session at 10 mg/kg, po and measured after 24 hrs by passive avoidance test (reference value: 46.2 +/- 8.9 secs)
Type: functional
The label depends only on Time: t if it is at least 50 s, f if it is smaller.

| Substance smiles | Assay target | Category |
| --- | --- | --- |
| CCOC(=O)c1ncn2c1CN=C(c1ccccc1)c1ccsc1-2 | Mus musculus | t |
| CC(C)(C)OC(=O)c1ncn2c1CN=C(c1ccccc1)c1ccsc1-2 | Mus musculus | f |
| CCOC(=O)c1ncn2c1CN=C(c1cccc(F)c1)c1ccsc1-2 | Mus musculus | f |
| CC(C)(C)OC(=O)c1ncn2c1CN=C(c1ccc(F)cc1)c1ccsc1-2 | Mus musculus | t |

With those in mind, consider the next compound.
stdin: Please indicate if the recorded Time for "CCOC(=O)c1ncn2c1CN=C(c1ccc(F)cc1)c1ccsc1-2" meets or exceeds 50 s.
stdout: t

====

Let's look at some molecules and their measured Time.
Test system: Mus musculus
Assay remarks: Anxiolytic activity in mouse assessed as increase in time spent in lighted compartment at 10 mg/kg, po measured after 30 mins by light-dark box test (reference value: 122.3 +/- 8.5 secs)
Type: functional
Measurement conditions: 0.5 h
Write it as a number; the unit min goes unstated.

stdin: Quote Mus musculus Time for entry "CCOC(=O)c1ncn2c1CN=C(c1ccc(F)cc1)c1ccsc1-2" .
stdout: 109.8

stdin: Quote Mus musculus Time for entry "CCOC(=O)c1ncn2c1CN=C(c1ccccc1)c1ccsc1-2" .
stdout: 131.3

stdin: Quote Mus musculus Time for entry "CC(C)(C)OC(=O)c1ncn2c1CN=C(c1cccc(F)c1)c1ccsc1-2" .
stdout: 118.3

stdin: Quote Mus musculus Time for entry "CC(C)(C)OC(=O)c1ncn2c1CN=C(c1ccc(F)cc1)c1ccsc1-2" .
stdout: 145.6

stdin: Quote Mus musculus Time for entry "CCOC(=O)c1ncn2c1CN=C(c1cccc(F)c1)c1ccsc1-2" .
stdout: 111.3

stdin: Quote Mus musculus Time for entry "CN1C(=O)CN=C(c2ccccc2)c2cc(Cl)ccc21" .
stdout: 165.6

stdin: Quote Mus musculus Time for entry "CC(C)(C)OC(=O)c1ncn2c1CN=C(c1ccccc1)c1ccsc1-2" .
stdout: 113.6

====

Test system: Mus musculus
Assay remarks: Anticonvulsive activity in mouse assessed as protection against pentylenetetrazole-induced seizure at 30 mg/kg, po administered 30 mins prior to pentylenetetrazole challenge and measured for 30 mins
Type: functional
Measurement conditions: time 60 min, 1 h
Readout type: Activity
Record the result as number plus unit.

| Substance smiles | Assay target | Activity |
| --- | --- | --- |
| CC(C)(C)OC(=O)c1ncn2c1CN=C(c1ccc(F)cc1)c1ccsc1-2 | Mus musculus | 40% |
| CCOC(=O)c1ncn2c1CN=C(c1ccc(F)cc1)c1ccsc1-2 | Mus musculus | 0% |
| CC(C)(C)OC(=O)c1ncn2c1CN=C(c1cccc(F)c1)c1ccsc1-2 | Mus musculus | 0% |
| CCOC(=O)c1ncn2c1CN=C(c1cccc(F)c1)c1ccsc1-2 | Mus musculus | 20% |
| CCOC(=O)c1ncn2c1CN=C(c1ccccc1)c1ccsc1-2 | Mus musculus | 10% |

Next molecule, Activity to be filled in.
stdin: Tell us which Activity value is on record for "CC(C)(C)OC(=O)c1ncn2c1CN=C(c1ccccc1)c1ccsc1-2"
stdout: 20%
